Biological target: human muscarinic M3 receptors (Homo sapiens, UniProt P20309)
Construct: expressed in transfected cells; host or cells: Chinese hamster ovary-K1 (CHO) cells, membrane preparations
Sequence (P20309 whole entry): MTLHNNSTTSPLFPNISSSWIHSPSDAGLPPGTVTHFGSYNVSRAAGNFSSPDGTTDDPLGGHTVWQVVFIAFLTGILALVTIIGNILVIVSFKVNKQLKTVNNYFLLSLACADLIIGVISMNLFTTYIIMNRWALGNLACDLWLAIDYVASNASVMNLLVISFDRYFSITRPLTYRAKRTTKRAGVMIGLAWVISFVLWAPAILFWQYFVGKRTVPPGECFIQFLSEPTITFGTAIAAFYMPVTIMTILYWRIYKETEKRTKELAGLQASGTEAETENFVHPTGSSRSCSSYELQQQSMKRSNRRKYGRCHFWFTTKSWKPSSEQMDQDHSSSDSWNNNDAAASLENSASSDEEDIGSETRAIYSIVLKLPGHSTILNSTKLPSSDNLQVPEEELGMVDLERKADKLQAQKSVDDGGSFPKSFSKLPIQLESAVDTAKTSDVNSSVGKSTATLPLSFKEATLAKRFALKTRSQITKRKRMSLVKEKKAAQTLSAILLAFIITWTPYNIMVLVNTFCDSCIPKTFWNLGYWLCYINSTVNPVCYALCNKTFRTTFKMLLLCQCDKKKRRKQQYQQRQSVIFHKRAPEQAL
Assay: biochemical
Type: binding
quantity: pIC50
Units for pIC50: none; it is -log10 of a concentration expressed in mol/L.

Problem: # returns recorded pIC50 (system: human muscarinic M3 receptors (Homo sapiens, UniProt P20309)) for `CCCCCN(C(=O)O[C@H]1CN2CCC1CC2)c1ccccc1`
Solution: 7.72

###

Biological target: human muscarinic M3 receptors (Homo sapiens)
Construct: expressed in transfected cells; host or cells: Chinese hamster ovary-K1 (CHO) cells, membrane preparations
Experiment: biochemical
Format: binding
Conditions: [3H]-NMS displacement, membranes of CHO-K1 cells expressing human M3, 25° C., 60 min; read-out: BINDING TO RECPTOR M3 (IC50 nM)
// returns FALSE unless IC50 is strictly below 7 nM, in which case TRUE

>  <compound>
CCCCN(C(=O)O[C@H]1C[N+]2(CCOc3ccccc3)CCC1CC2)c1ccccc1 [Example 79]

>  <category>
FALSE

$$$$
>  <compound>
O=C(O[C@H]1C[N+]2(CC=Cc3ccccc3)CCC1CC2)N(Cc1ccccc1)c1ccccc1.[Br-] [Example 5]

>  <category>
FALSE

$$$$
>  <compound>
O=C(O[C@H]1CN2CCC1CC2)N(Cc1ccccc1)c1ccccc1 [Example 1]

>  <category>
TRUE

$$$$
>  <compound>
O=C(O[C@H]1CN2CCC1CC2)N(Cc1ccsc1)c1ccccc1 [Example 126]

>  <category>
FALSE

$$$$

Problem: Is IC50 strictly under 7 nM for the entry C=CC[N+]12CCC(CC1)[C@@H](OC(=O)N(Cc1ccccc1)c1ccccc1)C2.[Br-] [Example 6] ?
Solution: FALSE

Problem: O=C(O[C@H]1CN2CCC1CC2)N(Cc1ccco1)c1ccccc1 [Example 153] ?
Solution: TRUE

Problem: O=C(O[C@H]1CN2CCC1CC2)N(Cc1cccs1)c1ccccc1 [Example 82] ?
Solution: TRUE
